tested on: Human immunodeficiency virus 1; assay: Antiviral activity against HIV-1 Bal infected in PBMCs; format: functional, organism-based; settings: Human immunodeficiency virus 1, Bal, PBMC
Result Type: pIC50
# log scale: pIC50 equals minus log10 of the concentration in mol/L

Name the reported pIC50 value associated with the compound C/C(=C/C(=O)c1cccnc1)Nc1ccc(O)cc1
5.38

====

assay: Cytotoxicity against human PBMCs; format: toxicity, cell-based, PBMC; conditions: read-out: TC50 (the source's name)
This section presents molecules with their documented CC50 values.

{"columns": ["Molecule Smiles", "CC50"],
 "data": [
  ["COc1cc(-c2ccc(Nc3ccccc3C(=O)O)c(OC)c2)ccc1Nc1ccccc1C(=O)O", "> 100 µM"]
]}

Please turn your attention to the following entry.
Name the reported CC50 value associated with the molecule C/C(=C/C(=O)c1cccnc1)Nc1ccc(O)cc1
> 100 µM
